test system: 422866-222-R5-J1-PDC spheroid viability; experiment: Anticancer human tumor 422866-222-R5-J1-PDC patient-derived pancreatic adenocarcinoma cell line growth inhibition [CLK]; conditions: second compound 0.0316 µM; first compound 0.316 µM; stronger effect = lower value; spheroids with HUVEC and MSC
Measure: viability, T/C (%)
Number in %, nothing else.

Solved cases below.
[[record]]
molecule = "CCc1c2c(nc3ccc(O)cc13)-c1cc3c(c(=O)n1C2)COC(=O)[C@]3(O)CC + CNC(=O)c1ccc(Nc2nc(OC3CCCC3)c3c(-c4ccc5nc(C)oc5c4)c[nH]c3n2)c(OC)c1"
measure = "viability, T/C"
result_unit = "%"
reading = 42.7

[[record]]
molecule = "CC1COCCN1c1cc(C2(S(C)(=N)=O)CC2)nc(-c2ccnc3[nH]ccc23)n1 (stereo not given) + CN1CCN(c2cc(C(=O)Nc3cc4cc(-c5cnn(C)c5)ccc4cn3)ccn2)CC1"
measure = "viability, T/C"
result_unit = "%"
reading = 93.6

[[record]]
molecule = "CCN1CCN(Cc2ccc(Nc3ncc(F)c(-c4cc(F)c5nc(C)n(C(C)C)c5c4)n3)nc2)CC1 + CN1CCN(c2cc(C(=O)Nc3cc4cc(-c5cnn(C)c5)ccc4cn3)ccn2)CC1"
measure = "viability, T/C"
result_unit = "%"
reading = 90.8

[[record]]
molecule = "Nc1ccn(C2OC(CO)C(O)C2(F)F)c(=O)n1 (stereo not given) + CN1CCN(c2cc(C(=O)Nc3cc4cc(-c5cnn(C)c5)ccc4cn3)ccn2)CC1"
measure = "viability, T/C"
result_unit = "%"
reading = 37.8

[[record]]
molecule = "O=C(c1cc(Cc2n[nH]c(=O)c3ccccc23)ccc1F)N1CCN(C(=O)C2CC2)CC1 + CNC(=O)c1ccc(Nc2nc(OC3CCCC3)c3c(-c4ccc5nc(C)oc5c4)c[nH]c3n2)c(OC)c1"
measure = "viability, T/C"
result_unit = "%"
reading = 112


// next item, viability, T/C requested
For C=C(F)C(=O)N1CCN(c2nc(OCC3CCCN3C)nc3c2CCN(c2cccc4cccc(Cl)c24)C3)CC1CC#N (stereo not given) + CNC(=O)c1ccc(Nc2nc(OC3CCCC3)c3c(-c4ccc5nc(C)oc5c4)c[nH]c3n2)c(OC)c1 , what is its reported viability, T/C? 23.2

----------
system: 422866-222-R5-J1-PDC spheroid viability; assay: Anticancer human tumor 422866-222-R5-J1-PDC cell line growth inhibition [CLK]; conditions: curve of first compound; second compound 10 µM; spheroids with HUVEC and MSC;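 note: spheroids exposed to agents for seven days before readout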
Below, each of the molecules is paired with its reported IC50 value.

[[record]]
molecule = "CC(=O)O[C@H]1C(=O)[C@@]2(C)[C@H]([C@H](OC(=O)c3ccccc3)[C@]3(O)C[C@H](OC(=O)[C@H](O)[C@@H](NC(=O)c4ccccc4)c4ccccc4)C(C)=C1C3(C)C)[C@]1(OC(C)=O)CO[C@@H]1C[C@@H]2O + CN1CCN(c2cc(C(=O)Nc3cc4cc(-c5cnn(C)c5)ccc4cn3)ccn2)CC1"
measure = "IC50"
reading = "< 31.6 nM"

[[record]]
molecule = "Cn1ncnc1[C@H]1c2n[nH]c(=O)c3cc(F)cc(c23)N[C@@H]1c1ccc(F)cc1 + CNC(=O)c1ccc(Nc2nc(OC3CCCC3)c3c(-c4ccc5nc(C)oc5c4)c[nH]c3n2)c(OC)c1"
measure = "IC50"
reading = "> 100 nM"

[[record]]
molecule = "CC(Nc1ccc2c(c1)OCCn1cc(N3C(=O)OCC3C(F)F)nc1-2)C(N)=O (stereo not given) + CN1CCN(c2cc(C(=O)Nc3cc4cc(-c5cnn(C)c5)ccc4cn3)ccn2)CC1"
measure = "IC50"
reading = "< 31.6 nM"

[[record]]
molecule = "CC1COCCN1c1cc(C2(S(C)(=N)=O)CC2)nc(-c2ccnc3[nH]ccc23)n1 (stereo not given) + CN1CCN(c2cc(C(=O)Nc3cc4cc(-c5cnn(C)c5)ccc4cn3)ccn2)CC1"
measure = "IC50"
reading = "< 31.6 nM"


I'd like to know its IC50. The molecule in question is C#Cc1c(F)ccc2cc(O)cc(-c3ncc4c(N5CC6CCC(C5)N6)nc(OCC56CCCN5CC(F)C6)nc4c3F)c12 (stereo not given) + CNC(=O)c1ccc(Nc2nc(OC3CCCC3)c3c(-c4ccc5nc(C)oc5c4)c[nH]c3n2)c(OC)c1 202 nM

Also need Nc1ccn(C2OC(CO)C(O)C2(F)F)c(=O)n1 (stereo not given) + CNC(=O)c1ccc(Nc2nc(OC3CCCC3)c3c(-c4ccc5nc(C)oc5c4)c[nH]c3n2)c(OC)c1 , thanks. 72.4 nM

Next record, please: CC1(C)CCC(CN2CCN(c3ccc(C(=O)NS(=O)(=O)c4ccc(NCC5CCOCC5)c([N+](=O)[O-])c4)c(Oc4cnc5[nH]ccc5c4)c3)CC2)=C(c2ccc(Cl)cc2)C1 + CNC(=O)c1ccc(Nc2nc(OC3CCCC3)c3c(-c4ccc5nc(C)oc5c4)c[nH]c3n2)c(OC)c1 > 10000 nM

What do we get for COC1C=CCC(C)C(C)S(=O)(=O)NC(=O)c2ccc3c(c2)N(CC2CCC21)CC1(CCCc2cc(Cl)ccc21)CO3 (stereo not given) + CN1CCN(c2cc(C(=O)Nc3cc4cc(-c5cnn(C)c5)ccc4cn3)ccn2)CC1 ? < 31.6 nM

What about CCCS(=O)(=O)Nc1ccc(F)c(C(=O)c2c[nH]c3ncc(-c4ccc(Cl)cc4)cc23)c1F + CNC(=O)c1ccc(Nc2nc(OC3CCCC3)c3c(-c4ccc5nc(C)oc5c4)c[nH]c3n2)c(OC)c1 ? > 10000 nM

Item: COc1cccc2c1C(=O)c1c(O)c3c(c(O)c1C2=O)CC(O)(C(=O)CO)CC3OC1CC(N)C(O)C(C)O1 (stereo not given) + CN1CCN(c2cc(C(=O)Nc3cc4cc(-c5cnn(C)c5)ccc4cn3)ccn2)CC1 < 31.6 nM

// next record NC(=O)C(=Cn1cnc(-c2cc(C(F)(F)F)cc(C(F)(F)F)c2)n1)c1cncnc1 + CN1CCN(c2cc(C(=O)Nc3cc4cc(-c5cnn(C)c5)ccc4cn3)ccn2)CC1 < 9.49 nM

And Cn1ncnc1[C@H]1c2n[nH]c(=O)c3cc(F)cc(c23)N[C@@H]1c1ccc(F)cc1 + CN1CCN(c2cc(C(=O)Nc3cc4cc(-c5cnn(C)c5)ccc4cn3)ccn2)CC1 ? < 0.316 nM

Again, but for CC(CO)NC(=O)c1cc(-c2ccc(Cl)cc2)nn(-c2cnn(C)c2)c1=O (stereo not given) + CN1CCN(c2cc(C(=O)Nc3cc4cc(-c5cnn(C)c5)ccc4cn3)ccn2)CC1 < 31.6 nM

Now try Nc1ccccc1NC(=O)c1ccc(CNC(=O)OCc2cccnc2)cc1 + CNC(=O)c1ccc(Nc2nc(OC3CCCC3)c3c(-c4ccc5nc(C)oc5c4)c[nH]c3n2)c(OC)c1 . > 10000 nM

How about CCCS(=O)(=O)Nc1ccc(F)c(C(=O)c2c[nH]c3ncc(-c4ccc(Cl)cc4)cc23)c1F + CN1CCN(c2cc(C(=O)Nc3cc4cc(-c5cnn(C)c5)ccc4cn3)ccn2)CC1 ? < 31.6 nM

Another molecule to check: C#Cc1c(F)ccc2cc(O)cc(-c3ncc4c(N5CC6CCC(C5)N6)nc(OCC56CCCN5CC(F)C6)nc4c3F)c12 (stereo not given) + CN1CCN(c2cc(C(=O)Nc3cc4cc(-c5cnn(C)c5)ccc4cn3)ccn2)CC1 < 31.6 nM

Now try CC(CO)NC(=O)c1cc(-c2ccc(Cl)cc2)nn(-c2cnn(C)c2)c1=O (stereo not given) + CNC(=O)c1ccc(Nc2nc(OC3CCCC3)c3c(-c4ccc5nc(C)oc5c4)c[nH]c3n2)c(OC)c1 . > 10000 nM
